Target sequence: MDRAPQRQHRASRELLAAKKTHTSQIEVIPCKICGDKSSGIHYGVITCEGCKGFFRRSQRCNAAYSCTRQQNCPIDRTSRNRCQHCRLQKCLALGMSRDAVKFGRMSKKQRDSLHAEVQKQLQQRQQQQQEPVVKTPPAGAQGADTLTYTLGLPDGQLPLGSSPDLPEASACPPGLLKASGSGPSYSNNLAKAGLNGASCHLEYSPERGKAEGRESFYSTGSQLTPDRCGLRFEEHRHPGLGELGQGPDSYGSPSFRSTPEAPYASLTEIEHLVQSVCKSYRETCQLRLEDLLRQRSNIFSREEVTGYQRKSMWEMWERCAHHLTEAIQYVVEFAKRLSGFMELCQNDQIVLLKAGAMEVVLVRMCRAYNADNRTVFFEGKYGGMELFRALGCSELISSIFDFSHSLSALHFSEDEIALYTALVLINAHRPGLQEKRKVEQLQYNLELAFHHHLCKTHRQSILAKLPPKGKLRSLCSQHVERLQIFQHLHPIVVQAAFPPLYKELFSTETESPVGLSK
readout: EC50 (nM)

Some compounds with known EC50 results, for comparison:
{"structure": "C/C(=C\\c1ccc2c(c1)N(S(=O)(=O)c1ccc(F)c(C(F)(F)F)c1)C[C@H](CCC(=O)O)O2)c1c(F)cccc1Cl", "value-observed": 85}
{"structure": "O=C(O)[C@H](O)CC[C@H]1CN(S(=O)(=O)c2cccc(C(F)(F)F)c2)c2cc(-c3cc(F)ccc3F)ccc2O1", "value-observed": 120}
{"structure": "C/C(=C\\c1ccc2c(c1)N(S(=O)(=O)c1ccc(F)c(C3CC3)c1)C[C@H](CCC(=O)O)O2)c1c(F)cccc1Cl", "value-observed": 269}

P: CC(C)c1ccc(-c2ccc3c(c2)N(S(=O)(=O)c2cccc(C(F)(F)F)c2)C[C@H](CCC(=O)O)O3)cc1
Q: O=C(O)CC[C@H]1CN(S(=O)(=O)c2cccc(C(F)(F)F)c2)c2cc(-c3cccc(F)c3Cl)ccc2O1
R: C/C(=C\c1ccc2c(c1)N(S(=O)(=O)c1cccc(C(F)(F)F)c1)C[C@H](CCC(=O)O)O2)c1ccccc1C(F)(F)F
S: C/C(=C\c1ccc2c(c1)N(S(=O)(=O)c1cccc(C(F)(F)F)c1)C[C@H](CCC(=O)O)O2)c1c(Cl)cccc1Cl
**Query** Arrange the 4 compounds by rising EC50, starting with the smallest. Answer format: the labels, ordered as requested.
**Result** P, R, Q, S
(P: 42 nM, R: 108 nM, Q: 262 nM, S: 435 nM)
